- ASSAY: clinical
- ASSAY_CONTEXT: human, plasma, topical, 3 mg
PROPERTY: concentration at 2 h (ng/mL)
The response must be a number in ng/mL with no trailing unit.

Q) Recorded concentration at 2 h for COc1ccc2[nH]cc(CCNC(C)=O)c2c1 , please?
A) 1.5

###

- ASSAY: Transdermal delivery of melatonin: plasma level of melatonin after applying composition to skin of a subject
- ASSAY_CONTEXT: human, plasma, topical, 0.3 mL of 1% melatonin in water, Plasma level of melatonin, Tryptophan isopropyl ester hydrochloride 247.52 mM, 0.3 mL applied to skin, 1 hr after transdermal administration
PROPERTY: concentration at 1 h (ng/mL)
Write the answer as a number in ng/mL, unit excluded.

Q) Please look up its concentration at 1 h: COc1ccc2[nH]cc(CCNC(C)=O)c2c1
A) 2.5

Values were extracted from patent US9962369B2.
